Values were extracted from PubChem BioAssay AID624205.

Test: Vero E6 cell cytotoxicity, dose response, cytotoxicity control for PfM18AAP inhibitor project, set 3 (AID 624205)
Details: Vero E6 viability, CellTiter-Glo luminescence, 72 h; at 50 µM (top of the series)
Inconclusive results are not listed.
Binarize viability at 90%; below is condition met, at or above is condition not met.

# mol-smiles, group-label
measured = [
    ("COc1ccc(CCN(C)c2ncnc3ccccc23)cc1OC", "condition met"),
    ("COc1ccc(CCNC(=O)c2cc(C)ccc2N)cc1OC", "condition not met"),
    ("CN(CCc1ccc(O)c(O)c1)c1ccnc2c(F)cccc12", "condition met"),
    ("Cc1cccc2c(NCCc3ccc(O)c(O)c3)ccnc12", "condition not met"),
    ("COc1ccc(CCN(C)c2cc(C)nc3ccccc23)cc1OC", "condition met"),
]
